assay: chemical genetic growth profiling, strain panel (AID 1159580);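 also: tested at 20 µM; growth read once vehicle control cultures reached saturation at 30 °C; 1 = growth at the plate median or of vehicle wells; lower values mean less growth of the strain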; details: S. cerevisiae deletion strains, growth OD, locus YIL125W, strain kgd1, hits give low values
Out of some 5,500 compounds screened, about 2,000 (36%) were called active. Not shown: some 18% with an inconclusive outcome. The list shows a part of the results.
Recorded measurements of normalized growth, one per entry
Provide a numeric answer; units are not to be included.

Compound	normalized growth
COC(=O)CCC(C)[C@H]1CCC2C3C(C[C@H](O)[C@@]21C)[C@@]1(C)CC[C@@H](O)C[C@H]1C[C@H]3O (some centres undefined)	1.03
COC(=O)CCC(=O)O[C@H]1CCC2(C)C(CCC3C2C(=O)[C@@H](O)C2(C)C3CC3OC4(CCC(C)CO4)[C@@H](C)C32)C1 (some centres undefined)	1.01
COc1cc(C(=O)O)c2c(c1C)OC(=O)c1c(C)cc(O)c(C=O)c1O2	0.927

Request: What does the record list as normalized growth for CN(C(=O)CN(CCO)CC(=O)N(C)C(C)(C)Cc1ccccc1)C(C)(C)Cc1ccccc1 ?
Response: 0.988

Request: Can you share its normalized growth? I mean this compound: COc1c(Cl)ccc(Cl)c1C(=O)O
Response: 1.01

Request: Quick one: normalized growth for COc1cc(OC)c(OC)cc1C=O ?
Response: 0.998

Request: Dear colleague, I am looking for the recorded normalized growth of the following compound: N#C/C(=C\c1cccc(O)c1)C(=O)O
Response: 0.989

Request: Look up normalized growth for this compound: CC(CCC(=O)O)[C@H]1CCC2C3CC[C@@H]4C[C@H](O)CC[C@]4(C)C3CC[C@@]21C (some centres undefined)
Response: 1.04

Request: If you can, please state the reported normalized growth value of COc1ccc(C(=O)CC(=O)c2ccc(C(C)(C)C)cc2)cc1 .
Response: 0.993

Request: Which measured normalized growth value corresponds to CC(CN(C)C)CN1c2ccccc2CCc2ccccc21 (centres undefined) ?
Response: 1.01

Request: So what does the record say about normalized growth for CC1=C2[C@H]3OC(=O)[C@@H](C)[C@@H]3CC[C@@]2(C)C=CC1=O ?
Response: 1.02

Request: # input compound: CCCCCC1C(=O)CCC1CC(=O)O (centres undefined) ; wanted: its normalized growth
Response: 0.985

* * *

assay: chemical genetic growth profiling, strain panel (AID 1159580); conditions: S. cerevisiae deletion strains, growth OD, locus YBR021W, strain FUR4, hits give low values
Out of some 5,500 compounds screened, about 2,000 (36%) were called active. Not shown: some 18% with an inconclusive outcome. The list shows a part of the results.
Quantity Name: normalized growth
Please reply with the number alone, leaving off any unit.

Compound	normalized growth
N[C@H](Cc1cc(I)c(Oc2ccc(O)c(I)c2)c(I)c1)C(=O)O	0.989
N[C@H](Cc1ccccc1)C(=O)O	0.98
CCN(CC)CCOC(=O)C(c1ccccc1)c1ccccc1	0.989
CC(=O)O[C@H]1C[C@@H](OC(C)=O)C(C)(C)C2CC(=O)[C@]3(C)C(CC[C@@]4(C)[C@H](c5ccoc5)OC(=O)[C@H]5O[C@]543)[C@]21C (stereo not given in full)	0.984
N[C@@H](Cc1cc(I)c(Oc2cc(I)c(O)c(I)c2)c(I)c1)C(=O)O	1.07

Request: Please give the measured normalized growth for this compound: O=C(O)Cc1cc(I)c(Oc2cc(I)c(O)c(I)c2)c(I)c1
Response: 1.03

Request: Any idea what its normalized growth is? The compound is CO[C@]12C[C@@H](COC(=O)c3cncc(Br)c3)CN(C)[C@@H]1Cc1cn(C)c3cccc2c13
Response: 0.913

Request: Give the measured normalized growth of COc1c2ccoc2nc2c(OC)c(OCC(O)C(C)(C)O)ccc12 (stereo not given) .
Response: 0.992

Request: Given CN1CC(CNC(=O)OCc2ccccc2)CC2c3cccc4c3c(cn4C)CC21 (stereo not given) , state its recorded normalized growth.
Response: 1.02

Request: Reported normalized growth, compound COc1c2ccccc2nc2occc12 : ____
Response: 0.993

* * *

test: chemical genetic growth profiling, strain panel (AID 1159580);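 also: tested at 20 µM; growth read once vehicle control cultures reached saturation at 30 °C; 1 = growth at the plate median or of vehicle wells; lower values mean less growth of the strain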; conditions: S. cerevisiae deletion strains, growth OD, locus YNR049C, strain mso1
The whole screen tested about 5,500 compounds, of which about 2,000 (36%) were called active. About 18% were inconclusive and are not listed. Cut-off read from the data, not from the text of the source: active = normalized growth mostly below about 0.91 (no sharp cut-off); inconclusive = no clear call, values can overlap the other calls; inactive = mostly above about 0.92. The list shows a part of the results.
Select the matching outcome among active, inactive

> print(dat)
                                   molecule  qualitative.label
1  COc1cc(S(C)=O)ccc1-c1nc2ncccc2[nH]1 (configuration not stated)           inactive

Request: Look up the recorded call for Nc1ccncc1 in this test.
Response: inactive

Request: In this assay, the call recorded for CCCCCC1C(=O)CCC1CC(=O)O (configuration not stated) was what?
Response: inactive

Request: Please share the test call associated with Nc1cc(-c2ccncc2)c[nH]c1=O .
Response: active

Request: What was the test verdict on COc1cc(OC)c(OC)cc1C=O ?
Response: inactive

Request: # fetch the recorded call for CCCCCC1C(=O)CCC1CC(=O)OC (configuration not stated) here
Response: inactive

Request: What call does the record list for CN(C)N=Nc1nc[nH]c1C(N)=O ?
Response: inactive

* * *

Each entry below carries its reported normalized growth.
test: chemical genetic growth profiling, strain panel (AID 1159580);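 also: tested at 20 µM; growth read once vehicle control cultures reached saturation at 30 °C; 1 = growth at the plate median or of vehicle wells; lower values mean less growth of the strain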; conditions: S. cerevisiae deletion strains, growth OD, locus YLR102C, strain apc9, hits give low values
Screen size: about 5,500 compounds; about 2,000 (36%) were called active. About 18% were inconclusive and are not listed. The list shows a part of the results.

> print(dat)
                                   compound      quantity.name      assay.value
1  COc1cc2c(cc1/C=C/C(=O)c1cc(OC)c(OC)cc1OC)OCO2  normalized growth  1.02 (inactive)

Request: I have this compound here, O=c1[nH]cnc2[nH]ncc12 , and I need its recorded normalized growth.
Response: 1.02 (inactive)

Request: Fill blank: measured normalized growth of the compound CN(C)CCC(c1ccc(Br)cc1)c1ccccn1 (stereo not given) is ____.
Response: 0.992 (inactive)

Request: What value of normalized growth has been recorded for this entry: COC(=O)c1c(C)cc(OC(=O)c2c(C)cc(O)c(C=O)c2O)c(C)c1O
Response: 1.02 (inactive)

Request: Query: normalized growth; subject: COC(=O)CCC(=O)O[C@H]1CCC2(C)C(CCC3C2C(=O)[C@@H](O)C2(C)C3CC3OC4(CCC(C)CO4)[C@@H](C)C32)C1 (stereo not given in full)
Response: 0.996 (inactive)

Request: Quick one: normalized growth for COC(=O)c1c(C)cc(OC(=O)c2c(C)c(Cl)c(O)c(C=O)c2O)c(C)c1O ?
Response: 0.982 (inactive)

Request: Consider the compound NS(=O)(=O)c1cc2c(cc1Cl)NC(C1CC3C=CC1C3)NS2(=O)=O (stereo not given) and give its measured normalized growth.
Response: 0.984 (inactive)

* * *

assay: chemical genetic growth profiling, strain panel (AID 1159580);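 also: tested at 20 µM; growth read once vehicle control cultures reached saturation at 30 °C; 1 = growth at the plate median or of vehicle wells; lower values mean less growth of the strain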; settings: S. cerevisiae deletion strains, growth OD, locus YJR075W, strain HOC1, hits give low values
Out of some 5,500 compounds screened, about 2,000 (36%) were called active. Another 18% or so got no clear call; they are omitted. Some of the results follow.
Consider the following molecules and their measured normalized growth readings.
Hey, just send me the number, nothing else.

As a guide, the following entries are already answered.
> print(dat)
                                    molecule      quantity.name  assay.value
 1  O=C(NNc1c(Cl)cc(Cl)cc1Cl)NC(=O)c1ccccc1F  normalized growth         0.99
 2                  COc1c(Cl)ccc(Cl)c1C(=O)O  normalized growth        0.971
 3  N[C@@H]1[C@@H](O)[C@H](O)[C@@H](CO)O[C@H]1O  normalized growth            1
 4  C=C1C(C2(C)C=CC(=O)C(C)(C)C2CC(=O)OC)CC[C@@]2(C)[C@H](c3ccoc3)OC(=O)C3OC132 (stereo partly specified)  normalized growth         0.98
 5              CSC(=NC(=O)c1c(Cl)cccc1Cl)SC  normalized growth        0.776
 6  O=C1CSC(c2ccc(Cl)c(Cl)c2)N1c1ccc(F)cc1 (stereo unspecified)  normalized growth        0.939
 7  Cc1cccc(Nc2ccncc2S(=O)(=O)NC(=O)NC(C)C)c1  normalized growth         1.01
 8  C=C1[C@H]2CC[C@@]3(C)[C@H](c4ccoc4)OC(=O)C[C@]13O[C@H]1C[C@H](O)C(C)(C)[C@H](CC(=O)OC)[C@]12C  normalized growth        0.994
 9  OCC1O[C@H](O)C(Cl)C(O)C1O (stereo partly specified)  normalized growth        0.984
10  Cc1cc2c(C(C)C)c(O)c(O)c(C=O)c2c(O)c1-c1c(C)cc2c(C(C)C)c(O)c(O)c(C=O)c2c1O  normalized growth        0.907

Request: // lookup normalized growth for Cc1ccc(/C(N)=N\O)cc1F
Response: 1.03
